Assay info: self-splicing fitness, log relative to wild type (ln ratio); higher = more splicing; Tetrahymena group I intron in knt gene, E. coli kanamycin selection, DiMSum; sequences stand for … in CUCUCU…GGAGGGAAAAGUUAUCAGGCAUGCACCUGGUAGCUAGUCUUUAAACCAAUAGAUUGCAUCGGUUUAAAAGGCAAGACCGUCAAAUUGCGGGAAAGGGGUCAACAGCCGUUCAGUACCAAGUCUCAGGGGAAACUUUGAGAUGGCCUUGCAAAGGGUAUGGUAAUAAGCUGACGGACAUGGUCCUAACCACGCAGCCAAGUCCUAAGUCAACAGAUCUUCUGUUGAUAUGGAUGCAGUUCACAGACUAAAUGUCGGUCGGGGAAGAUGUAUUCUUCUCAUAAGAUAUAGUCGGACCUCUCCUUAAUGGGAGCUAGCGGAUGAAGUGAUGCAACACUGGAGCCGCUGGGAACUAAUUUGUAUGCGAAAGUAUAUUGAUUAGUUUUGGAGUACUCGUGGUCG;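 note: selection with 25 µg/mL kanamycin versus none on LB agar overnight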
Assay setup: 30 °C
Classification field: enter rule met for self-splicing fitness (ln) values not below -3, rule not met for values below it.

For orientation, consider the following solved cases.
Sequence string: CGGAAGCAAUAUUACGCACA
Class name: rule met
//
Sequence string: AAAUAGCAAUAUUACGGUGU
Class name: rule met
//
Sequence string: AAUUAGCAAUAUUACGCGUU
Class name: rule not met
//
Sequence string: GUCGAGCAAUAUUACGAUCG
Class name: rule not met
//
Sequence string: AGUGAGCAAUAUUACGGGUU
Class name: rule met

For this sequence, is measured self-splicing fitness (ln) -3 or higher? UUGAAGCAAUAUUACGUCAU
rule met

For this sequence, is measured self-splicing fitness (ln) -3 or higher? AUGCAGCAAUAUUACGAUGU
rule met

###

Assay info: self-splicing fitness, log relative to wild type (ln ratio); higher = more splicing; Tetrahymena group I intron in knt gene, E. coli kanamycin selection, DiMSum; sequences stand for … in CUCUCU…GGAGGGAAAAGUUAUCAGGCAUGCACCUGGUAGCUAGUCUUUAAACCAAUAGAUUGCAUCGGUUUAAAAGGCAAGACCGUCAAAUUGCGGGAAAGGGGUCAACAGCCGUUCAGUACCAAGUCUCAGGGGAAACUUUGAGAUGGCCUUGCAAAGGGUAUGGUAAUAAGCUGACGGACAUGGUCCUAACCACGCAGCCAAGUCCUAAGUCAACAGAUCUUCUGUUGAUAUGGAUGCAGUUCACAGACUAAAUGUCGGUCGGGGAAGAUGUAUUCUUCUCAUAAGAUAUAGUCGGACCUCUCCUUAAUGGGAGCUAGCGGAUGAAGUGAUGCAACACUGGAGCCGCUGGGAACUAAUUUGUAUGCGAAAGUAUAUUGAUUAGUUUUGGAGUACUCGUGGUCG
Assay setup: 30 °C
Classification field: enter Satisfied for self-splicing fitness (ln) values not below -2, Not satisfied for values below it.

For orientation, consider the following solved cases.
Sequence string: GCAAAGCAAUAUUACGGUGU
Class name: Not satisfied
--
Sequence string: GAAUAGCAAUAUUACGUGUC
Class name: Not satisfied
--
Sequence string: AGCGAGCAAUAUUACGGCAA
Class name: Satisfied

For this sequence, is measured self-splicing fitness (ln) -2 or higher? UGCAAGCAAUAUUACGUAUA
Not satisfied

For this sequence, is measured self-splicing fitness (ln) -2 or higher? UUUCAGCAAUAUUACGAACG
Satisfied

For this sequence, is measured self-splicing fitness (ln) -2 or higher? GUUGAGCAAUAUUACGUCGU
Not satisfied

For this sequence, is measured self-splicing fitness (ln) -2 or higher? AGAUAGCAAUAUUACGUGUC
Not satisfied

For this sequence, is measured self-splicing fitness (ln) -2 or higher? AAAUAGCAAUAUUACGUAAU
Not satisfied

For this sequence, is measured self-splicing fitness (ln) -2 or higher? ACAGAGCAAUAUUACGGAGC
Not satisfied

###

Assay info: self-splicing fitness, log relative to wild type (ln ratio); higher = more splicing; Tetrahymena group I intron in knt gene, E. coli kanamycin selection, DiMSum; sequences stand for … in CUCUCU…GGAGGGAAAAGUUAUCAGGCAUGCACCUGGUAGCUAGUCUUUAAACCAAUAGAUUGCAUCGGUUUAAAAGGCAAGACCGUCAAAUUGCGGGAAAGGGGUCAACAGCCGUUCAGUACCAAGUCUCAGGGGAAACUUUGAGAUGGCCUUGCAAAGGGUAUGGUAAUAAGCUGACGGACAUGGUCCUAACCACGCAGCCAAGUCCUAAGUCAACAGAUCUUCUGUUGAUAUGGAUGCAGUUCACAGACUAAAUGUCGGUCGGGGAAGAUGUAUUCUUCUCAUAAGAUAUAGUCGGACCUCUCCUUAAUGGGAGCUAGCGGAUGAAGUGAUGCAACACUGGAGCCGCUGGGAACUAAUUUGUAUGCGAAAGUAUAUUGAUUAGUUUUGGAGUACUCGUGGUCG
Assay setup: 37 °C
Classification field: enter true for self-splicing fitness (ln) values not below -1, false for values below it.

For orientation, consider the following solved cases.
Sequence string: UAAGAGCAAUAUUACGGUUU
Class name: false
--
Sequence string: GCACAGCAAUAUUACGAACU
Class name: true
--
Sequence string: CGAGAGCAAUAUUACGUUUA
Class name: false
--
Sequence string: CGAUAGCAAUAUUACGUGCU
Class name: false
--
Sequence string: CUCCAGCAAUAUUACGAUAU
Class name: false
--
Sequence string: AAUUAGCAAUAUUACGUGCA
Class name: true
--
Sequence string: UAUUAGCAAUAUUACGAUCC
Class name: false
--
Sequence string: CUAAAGCAAUAUUACGCCUU
Class name: false
--
Sequence string: GAACAGCAAUAUUACGUGCA
Class name: true
--
Sequence string: GUGCAGCAAUAUUACGGAGG
Class name: false

For this sequence, is measured self-splicing fitness (ln) -1 or higher? GGUGAGCAAUAUUACGUCUU
true

For this sequence, is measured self-splicing fitness (ln) -1 or higher? UGAUAGCAAUAUUACGAGAC
false

For this sequence, is measured self-splicing fitness (ln) -1 or higher? CCACAGCAAUAUUACGCUGU
false

For this sequence, is measured self-splicing fitness (ln) -1 or higher? CAAUAGCAAUAUUACGUAUG
false

For this sequence, is measured self-splicing fitness (ln) -1 or higher? CGCGAGCAAUAUUACGCAGU
false

For this sequence, is measured self-splicing fitness (ln) -1 or higher? UAUUAGCAAUAUUACGGAAA
false

###

Form field: self-splicing fitness (ln) (one value per entry).
Assay info: self-splicing fitness, log relative to wild type (ln ratio); higher = more splicing; Tetrahymena group I intron in knt gene, E. coli kanamycin selection, DiMSum; sequences stand for … in CUCUCU…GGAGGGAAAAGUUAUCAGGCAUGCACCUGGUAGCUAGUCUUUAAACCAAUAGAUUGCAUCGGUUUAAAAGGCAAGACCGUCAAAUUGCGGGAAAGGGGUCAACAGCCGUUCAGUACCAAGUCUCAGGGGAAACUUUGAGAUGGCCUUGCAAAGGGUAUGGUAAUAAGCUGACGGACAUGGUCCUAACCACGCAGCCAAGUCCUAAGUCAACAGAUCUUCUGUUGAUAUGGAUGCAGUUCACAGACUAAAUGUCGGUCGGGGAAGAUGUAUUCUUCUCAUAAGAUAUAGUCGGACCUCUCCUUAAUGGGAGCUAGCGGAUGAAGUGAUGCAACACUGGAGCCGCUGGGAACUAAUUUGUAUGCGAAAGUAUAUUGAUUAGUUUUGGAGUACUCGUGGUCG
Assay setup: 30 °C
Number only, no unit.

Reference set, count: 3
Sequence string: GCACAGCAAUAUUACGACAA
Measured: -1.18

Sequence string: GGAGAGCAAUAUUACGCAUA
Measured: -3.12

Sequence string: CCCGAGCAAUAUUACGUGCU
Measured: -3.55

Write down self-splicing fitness (ln) measured for item UCAAAGCAAUAUUACGUCUG
-1.05

Write down self-splicing fitness (ln) measured for item GUGAAGCAAUAUUACGGAAA
-1.64

Write down self-splicing fitness (ln) measured for item AAUCAGCAAUAUUACGCUAA
-0.408

Write down self-splicing fitness (ln) measured for item AACAAGCAAUAUUACGCGUU
-3.91

Write down self-splicing fitness (ln) measured for item CACUAGCAAUAUUACGAUUA
-1.21

Write down self-splicing fitness (ln) measured for item GGACAGCAAUAUUACGUGAC
-1.07

Write down self-splicing fitness (ln) measured for item UCCCAGCAAUAUUACGCCCU
-2.07

Write down self-splicing fitness (ln) measured for item UGACAGCAAUAUUACGCAUA
-0.976

Write down self-splicing fitness (ln) measured for item GCAAAGCAAUAUUACGAAUA
-2.56

Write down self-splicing fitness (ln) measured for item GUUAAGCAAUAUUACGUACC
-0.386

Write down self-splicing fitness (ln) measured for item AACUAGCAAUAUUACGAGAG
-3.61

Write down self-splicing fitness (ln) measured for item AGCUAGCAAUAUUACGUGGG
-4.49

Write down self-splicing fitness (ln) measured for item CGCGAGCAAUAUUACGGUAA
-2.58

Write down self-splicing fitness (ln) measured for item GGUCAGCAAUAUUACGUAAC
-1.32

Write down self-splicing fitness (ln) measured for item CUCGAGCAAUAUUACGUCCA
-1.95

Write down self-splicing fitness (ln) measured for item GACGAGCAAUAUUACGGAUG
-2.45

Write down self-splicing fitness (ln) measured for item CGCGAGCAAUAUUACGGUUA
-2.88

Write down self-splicing fitness (ln) measured for item AUGUAGCAAUAUUACGUUGA
-3.43

Write down self-splicing fitness (ln) measured for item GAAAAGCAAUAUUACGCGGG
-3.37
